# target_or_test_system: T1, monomeric recombinant cynomologus monkey Notch3 extracellular domain (containing EGF like domains 1-12) … (cynomologus monkey)
# T1 construct: domain: EGF like domains 1-12; also called monomeric rcNotch3
# procedure_details: SPR BIAcore T100, antibody captured by anti-human IgG Fc, monomeric rcNotch3 analyte, 37 C
We use 0.01 s⁻¹ as the dividing line for koff: on or above the line is 1, below is -1.

Inquiry: Does the binder Hu4F11-78 (antibody, human IgG1, kappa, V domains shown, Humanized, human IgG1 kappa; Hv3-23 A28T S31H T62S heavy + Kv2D-29 N28Q kappa) VH: EVQLLESGGGLVQPGGSLRLSCAASGFTFSHYDMSWVRQAPGKGLEWVSYISRGGGSTYYPDSVKGRFTISRDNSKNTLYLQMNSLRAEDTAVYYCGRHATTAYWYFDVWGQGTMVTVSS VL: DVVMTQTPLSLSVTPGQPASISCRSSQSLVHTQGNTYLHWYLQKPGQSPQLLIYKVSNRFSGVPDRFSGSGSGTDFTLKISRVEAEDVGVYFCSQSTHVPWTFGQGTKVEIKR have recorded koff that is 0.01 s⁻¹ or more?
Reply text: -1

Inquiry: Does the binder Hu4F11-72 (antibody, human IgG1, kappa, V domains shown, Humanized, human IgG1 kappa; Hv3-23 S31H T62S heavy + Kv2D-29 N28H kappa) VH: EVQLLESGGGLVQPGGSLRLSCAASGFAFSHYDMSWVRQAPGKGLEWVSYISRGGGSTYYPDSVKGRFTISRDNSKNTLYLQMNSLRAEDTAVYYCGRHATTAYWYFDVWGQGTMVTVSS VL: DVVMTQTPLSLSVTPGQPASISCRSSQSLVHTHGNTYLHWYLQKPGQSPQLLIYKVSNRFSGVPDRFSGSGSGTDFTLKISRVEAEDVGVYFCSQSTHVPWTFGQGTKVEIKR have recorded koff that is 0.01 s⁻¹ or more?
Reply text: -1

Inquiry: Does the binder Hu4F11-76 (antibody, human IgG1, kappa, V domains shown, Humanized, human IgG1 kappa; Hv3-23 S31H T62S heavy + Kv2D-29 N28Y kappa) VH: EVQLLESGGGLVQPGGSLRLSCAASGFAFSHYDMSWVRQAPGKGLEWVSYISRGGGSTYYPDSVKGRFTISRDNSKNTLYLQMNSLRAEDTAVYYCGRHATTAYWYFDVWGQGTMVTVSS VL: DVVMTQTPLSLSVTPGQPASISCRSSQSLVHTYGNTYLHWYLQKPGQSPQLLIYKVSNRFSGVPDRFSGSGSGTDFTLKISRVEAEDVGVYFCSQSTHVPWTFGQGTKVEIKR have recorded koff that is 0.01 s⁻¹ or more?
Reply text: -1

Inquiry: Does the binder Hu4F11-32 (antibody, human IgG1, kappa, V domains shown, Humanized, human IgG1 kappa; Sh4F11 Hv3-23 heavy + Hu4F11 Kv2D-29 kappa) VH: EVQLLESGGGLVQPGGSLRLSCAASGFAFSSYDMSWVRQAPGKGLEWVSYISRGGGSTYYPDTVKGRFTISRDNSKNTLYLQMNSLRAEDTAVYYCGRHATTAYWYFDVWGQGTMVTVSS VL: DVVMTQTPLSLSVTPGQPASISCRSSQSLVHTNGNTYLHWYLQKPGQSPQLLIYKVSNRFSGVPDRFSGSGSGTDFTLKISRVEAEDVGVYFCSQSTHVPWTFGQGTKVEIKR have recorded koff that is 0.01 s⁻¹ or more?
Reply text: 1

Inquiry: Does the binder Hu4F11-70 (antibody, human IgG1, kappa, V domains shown, Humanized, human IgG1 kappa; Hv3-23 A28T S31H T62S heavy + Kv2D-29 N28H kappa) VH: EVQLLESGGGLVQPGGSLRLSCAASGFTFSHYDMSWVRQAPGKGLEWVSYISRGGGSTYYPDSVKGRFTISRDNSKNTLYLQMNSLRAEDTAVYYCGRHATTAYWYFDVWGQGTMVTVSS VL: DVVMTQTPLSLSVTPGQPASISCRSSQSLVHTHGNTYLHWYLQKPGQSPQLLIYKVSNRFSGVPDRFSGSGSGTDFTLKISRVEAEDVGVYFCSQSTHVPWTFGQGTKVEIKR have recorded koff that is 0.01 s⁻¹ or more?
Reply text: -1

Inquiry: Does the binder Hu4F11-79 (antibody, human IgG1, kappa, V domains shown, Humanized, human IgG1 kappa; Hv3-23 A28T T62S heavy + Kv2D-29 N28Q kappa) VH: EVQLLESGGGLVQPGGSLRLSCAASGFTFSSYDMSWVRQAPGKGLEWVSYISRGGGSTYYPDSVKGRFTISRDNSKNTLYLQMNSLRAEDTAVYYCGRHATTAYWYFDVWGQGTMVTVSS VL: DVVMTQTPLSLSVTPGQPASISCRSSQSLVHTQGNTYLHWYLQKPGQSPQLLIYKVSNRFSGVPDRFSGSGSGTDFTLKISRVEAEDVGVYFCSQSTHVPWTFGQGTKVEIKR have recorded koff that is 0.01 s⁻¹ or more?
Reply text: 1

Inquiry: Does the binder Hu4F11-73 (antibody, human IgG1, kappa, V domains shown, Humanized, human IgG1 kappa; Hv3-23 A28T S31N T62S heavy + Kv2D-29 N28Y kappa) VH: EVQLLESGGGLVQPGGSLRLSCAASGFTFSNYDMSWVRQAPGKGLEWVSYISRGGGSTYYPDSVKGRFTISRDNSKNTLYLQMNSLRAEDTAVYYCGRHATTAYWYFDVWGQGTMVTVSS VL: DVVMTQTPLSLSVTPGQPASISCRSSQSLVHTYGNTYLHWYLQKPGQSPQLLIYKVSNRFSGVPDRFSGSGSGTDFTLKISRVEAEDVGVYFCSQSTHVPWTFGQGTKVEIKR have recorded koff that is 0.01 s⁻¹ or more?
Reply text: -1

Inquiry: Does the binder Hu4F11-71 (antibody, human IgG1, kappa, V domains shown, Humanized, human IgG1 kappa; Hv3-23 A28T T62S heavy + Kv2D-29 N28H kappa) VH: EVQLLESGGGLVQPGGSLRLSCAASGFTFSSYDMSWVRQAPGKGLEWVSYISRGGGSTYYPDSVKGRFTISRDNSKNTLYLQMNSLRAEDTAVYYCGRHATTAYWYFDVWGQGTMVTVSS VL: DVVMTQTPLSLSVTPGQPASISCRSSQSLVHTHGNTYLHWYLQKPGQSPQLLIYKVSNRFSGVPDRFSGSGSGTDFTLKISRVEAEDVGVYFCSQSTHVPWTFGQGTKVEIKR have recorded koff that is 0.01 s⁻¹ or more?
Reply text: -1
